Every entry's value here was drawn from the EternaBench riboswitch data.

test system: MS2 coat protein; test: apparent Kd, MS2 coat protein; higher = weaker binding; RNA-MaP array; FMN 200 µM where present; conditions: designed as: ON switch for flavin mononucleotide; no ligand
Catalogue of apparent Kd values
PROPERTY_MEASURED: apparent Kd (nM)

* GUUAUUAUUAGUUCAUACUAUAAGAUAGAAGGUGAUUUAUUGACAUGAGGAUCACCCAUGUAAUUCAAGGAUAUGUAGAUACUC | 374
* AUUAUACAUGAGGAUCACCCAUGUCAACAAAGUCGAGGAUAUGGGCAAAUAAAAUAAGAACCAGAAGGCGAAUAAU | 238
* GAGUGGUAAAGAGGAUAUGCAUUGUUAUUAAAUGCAGAAGGUUUUAACAUGAGGAUCACCCAUGUAGGACUAUUCCUGUGUUUC | 14.8
* UGGAUGGUAUGAGGAUAUGCGCGCGACACGCGCGCAGAAGGCAUGUCAAUAGACAUGAGGAUCACCCAUGUAUUAUCCAUCCAA | 201
* UGGUACUAGGGAGGAUAUGGGAAGAUACAUGAGGAUCACCCAUGUUUAAGAAUGCCAAGAGGCAACUAGAAGGCCCUAGUACCU | 384

---

tested on: MS2 coat protein; assay: apparent Kd, MS2 coat protein; higher = weaker binding; RNA-MaP array; theophylline 2 mM where present; details: ligand present: theophylline; designed as: OFF switch for theophylline
Catalogue of apparent Kd readings, one per entry.
PROPERTY_MEASURED: apparent Kd (nM)

* GCAUGUGGAGUCUUACUAGAGAGGACAGAUACCAGUAAGAUGUGAUACCCUUGGCAGCUGCGAUUUACAUGAGGAUCACCCAUGU | 24.2
* AUAAGUAAUGUUUCGUGUAUUAUUACAGAUACCAGACUAUCCUAUGUCCCUUGGCAGCUGGAUUACAUGAGGAUCACCCAUGUUG | 24.9
* AGAUUAAAGAGUGAUACCAGACUACAUGAGGAUCACCCAUGUUACAUUUGAGUAGCUUUAGUCCCUUGGCAGCACUUUAUGUACA | 17.6
* ACAUGAGGAUCACCCAUGUUCCUCAUUGAUACCAGUGAAUUUAGACGCCCUUGGCAGCGAGUUUUUUUAUAAGAUUUUUUUUUUU | 1320
* AGACAUGUAAGAUAAAUGACUUAUACAGAUACCAGACUAGUCAAUGUCCCUUGGCAGCUGCAUAACAUGAGGAUCACCCAUGUAA | 32.7
* CGUGUCGUAACUGAUACCAGUGUACUGACAUGAGGAUCACCCAUGUUGGGUUUUGUUGUACACCCUUGGCAGCAGAAUCGAUACG | 119
* GAUGAUAUUGCAGAUACCAGACACAUGAGGAUCACCCAUGUCUCUGAGAUGAAGGAUCGUGUCCCUUGGCAGCUGCGAUAUCAUC | 338

---

system: MS2 coat protein; test: apparent Kd, MS2 coat protein; higher = weaker binding; RNA-MaP array; FMN 200 µM where present; settings: designed as: ON switch for flavin mononucleotide; no ligand
Measured apparent Kd of individual entries
PROPERTY_MEASURED: apparent Kd (nM)

- UUAUUACAUGAGGAUCACCCAUGUUUAGUGGUGACAGGAUAUACGAAAAAAAAAAAAAAAGUAGAAGGGUCUUAUU: 503
- CGUUCACAUGAGGAUCACCCAUGUCAGAUUUGGUCAGGAUAUGGUCUGCUUCCGCUAUUGCCAGAAGGGACUUUUG: 28.9
- CUGCUCGUAGAGAAGGCGUGGGCACAUGAGGAUCACCCAUGUCGCAGUACGAGGAUAUUUGCCGGCCCGCCCAAAAUGGCGCGG: 501
- UGGUACUAGGGAGGAUAUGGAAAGAUACAUGAGGAUCACCCAUGUUUAAGAAUGCCGAGAGGCAACUAGAAGGCCCUAGUACCU: 11.1
- GGGAGACAUGAGGAUCACCCAUGUGAAAACGUGUGAGGAUAUGUAUGGAAACCAUACUGUACAGAAGGCACUUGUC: 53.8
- ACCACGUCAGCGAUAUGAUCGAGAGAUCAUGUCGCUGAAUUUAGAAGGACAUGAGGAUCACCCAUGUAGGAUAUGGGUCGUGGA: 39.1
- GGACGUCACAUUUACAUGAGGAUCACCCAUGUCGAAAGACAUGAGGAUAUGCAUCCUAAUUGGAUGCAGAAGGCAUGGACGUCC: 335
